Would you mind telling me the reported Kd of each entry?
# tgt: T1, Glycoprotein VI extracellular domain (Gln21-Lys267) (Homo sapiens, UniProt Q9HCN6 SEQ:1-247)
# T1 chain: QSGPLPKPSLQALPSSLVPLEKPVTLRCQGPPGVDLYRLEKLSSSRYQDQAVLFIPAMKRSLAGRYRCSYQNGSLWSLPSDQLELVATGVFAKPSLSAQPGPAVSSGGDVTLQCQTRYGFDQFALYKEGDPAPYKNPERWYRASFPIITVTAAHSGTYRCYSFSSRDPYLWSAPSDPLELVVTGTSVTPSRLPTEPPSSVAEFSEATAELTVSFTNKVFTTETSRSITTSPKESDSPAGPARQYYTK
# experimentSummary: competition; competition with radiolabeled parent
# runConditions: tags: C-terminal His6; R&D Systems 3627-GP

Kd for GGAGGACGGCGCGCCUGGCAUAAGCCUCC (ssRNA, RB566 with 2'-OMe G1 and 5' hexylamino linker) [RB567] is < 10 nM

Kd for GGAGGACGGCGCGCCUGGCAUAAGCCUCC (ssRNA, RB560 with 5' branched 40 kDa PEG) [RB569] is < 10 nM

Kd for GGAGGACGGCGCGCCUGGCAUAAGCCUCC (ssRNA, RB549 with 2'-OMe G1 and 5' hexylamino linker) [RB560] is < 10 nM
